SYSTEM: hERG channel (Homo sapiens (Human))
Sequence (Q12809 whole entry): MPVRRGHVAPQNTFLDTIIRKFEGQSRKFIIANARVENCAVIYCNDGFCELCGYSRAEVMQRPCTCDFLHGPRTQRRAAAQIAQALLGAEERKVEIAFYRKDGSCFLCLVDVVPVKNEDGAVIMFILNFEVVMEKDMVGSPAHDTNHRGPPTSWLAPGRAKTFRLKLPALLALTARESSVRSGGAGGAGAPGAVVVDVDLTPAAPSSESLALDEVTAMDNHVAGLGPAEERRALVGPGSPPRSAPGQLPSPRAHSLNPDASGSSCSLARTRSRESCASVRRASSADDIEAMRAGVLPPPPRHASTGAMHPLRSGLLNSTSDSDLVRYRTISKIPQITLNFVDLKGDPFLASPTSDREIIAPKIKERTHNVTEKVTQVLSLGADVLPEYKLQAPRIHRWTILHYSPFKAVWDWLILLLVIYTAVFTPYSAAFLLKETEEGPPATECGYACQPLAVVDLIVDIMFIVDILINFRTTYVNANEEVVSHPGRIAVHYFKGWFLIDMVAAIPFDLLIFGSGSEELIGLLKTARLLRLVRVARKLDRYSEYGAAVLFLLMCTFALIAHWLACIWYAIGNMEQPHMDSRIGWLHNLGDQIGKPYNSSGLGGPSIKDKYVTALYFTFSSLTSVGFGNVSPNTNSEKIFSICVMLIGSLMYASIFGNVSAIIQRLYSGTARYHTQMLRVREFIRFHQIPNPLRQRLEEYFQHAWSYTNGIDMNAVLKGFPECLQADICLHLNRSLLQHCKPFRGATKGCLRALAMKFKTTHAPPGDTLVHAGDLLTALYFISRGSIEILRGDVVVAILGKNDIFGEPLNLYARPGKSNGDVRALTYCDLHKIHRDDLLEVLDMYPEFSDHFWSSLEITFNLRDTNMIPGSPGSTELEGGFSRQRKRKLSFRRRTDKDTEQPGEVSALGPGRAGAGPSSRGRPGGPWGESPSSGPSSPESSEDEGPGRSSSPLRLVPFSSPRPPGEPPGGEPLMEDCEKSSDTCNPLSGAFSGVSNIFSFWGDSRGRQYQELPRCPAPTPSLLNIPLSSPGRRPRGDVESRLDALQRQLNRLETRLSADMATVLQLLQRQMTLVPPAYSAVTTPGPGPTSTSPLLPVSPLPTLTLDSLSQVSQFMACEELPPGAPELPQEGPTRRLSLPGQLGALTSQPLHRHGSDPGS
ASSAY: hERG assay using IonWorks Quattro
Type: cell-based
STATED CONDITIONS: IonWorks protocol; read-out: IW hERG IC50
Where a name gives a salt, the structure may show the parent alone.
MEASURED METRIC: pIC50
pIC50 here: minus log base 10 of the concentration, concentration in moles per litre.

So what pIC50 did N[C@@H](Cc1nc(-c2cn[nH]c2)ccc1F)c1ccccc1-c1noc2ccccc12 [Example 78, hydrochloride] get with hERG channel (Homo sapiens (Human))? 5.12

Notebook: pull reported pIC50 for hERG channel (Homo sapiens (Human)), entry Nc1cccc(C[C@H](N)c2ccccc2-c2noc3ccccc23)n1 [Example 121, hydrochloride] 5.07

Which measured pIC50 belongs to CCc1cccc(C[C@H](N)c2ccccc2-c2noc3ccccc23)n1 [Example 101, hydrochloride] , tested on hERG channel (Homo sapiens (Human))? 5.55

Item: N[C@@H](Cc1cccc(C(F)(F)F)n1)c1ccccc1-c1noc2ccccc12 [Example 62, hydrochloride] Test system: hERG channel (Homo sapiens (Human)) Read-out: pIC50 Value: ? 5.49

// lookup pIC50 | system=hERG channel (Homo sapiens (Human)) | key= N[C@@H](Cc1cccc(-c2cn[nH]c2)n1)c1ccccc1-c1noc2ccccc12 [Example 91, hydrochloride] 5.74
